Each entry below carries its reported pIC50.
- Test System: human PRMT8 (Homo sapiens)
- Sequence (Q9NR22 whole entry): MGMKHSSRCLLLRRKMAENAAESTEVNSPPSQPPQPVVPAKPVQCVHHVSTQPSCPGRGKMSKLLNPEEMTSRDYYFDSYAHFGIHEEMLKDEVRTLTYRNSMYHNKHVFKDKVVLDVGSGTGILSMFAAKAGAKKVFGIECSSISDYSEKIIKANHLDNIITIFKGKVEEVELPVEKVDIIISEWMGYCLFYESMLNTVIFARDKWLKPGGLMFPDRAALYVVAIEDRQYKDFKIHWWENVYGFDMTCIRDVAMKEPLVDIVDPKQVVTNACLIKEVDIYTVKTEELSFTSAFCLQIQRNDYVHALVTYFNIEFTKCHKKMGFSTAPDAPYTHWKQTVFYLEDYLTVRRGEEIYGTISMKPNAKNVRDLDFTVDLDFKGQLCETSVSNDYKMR
- Assay Comment: PRMT8 Biochemical Assay
- Reported Conditions: read-out: PRMT8 IC50; peptide substrate, 3H-SAM Flashplate assay
Notebook: values listed as pIC50 are -log10 of the concentration (mol/L).

* CNCCN(C)Cc1c[nH]nc1-c1ccc(O[C@H]2C[C@H](OCCC3CCOCC3)C2)cc1 [Compound 155, bis(2,2,2-trifluoroacetate)] | 6.65

Next item in the queue.
Exercise: Give the reported pIC50 for this compound. CNCCN(C)Cc1c[nH]nc1-c1cc(OC(CO)CC(C)C)cc(C(F)(F)F)c1 (centres unmarked)
Solution: 7.36

====

- Test System: human PRMT8 (Homo sapiens)
- Assay Comment: PRMT8 Biochemical Assay
- Reported Conditions: PRMT8 IC50 (uM), peptide substrate, 3H-SAM Flashplate assay
Endpoint Label: IC50
Kindly format the answer as number then unit.

Exercise: // Input: CNCCN(C)Cc1c[nH]nc1-c1ccc(OC2CC(OCCC3CCCCC3)C2)cc1 (stereo not drawn) [Compound 100] . Output its IC50 only.
Solution: 0.0599 µM

Exercise: Provide one value: measured IC50 of CNCCN(C)Cc1n[nH]cc1-c1cc(C(=O)C(C)C)cc(C(F)(F)F)c1 [Compound 134]
Solution: 0.168 µM

====

- Test System: human PRMT1 (Homo sapiens)
- Construct: GST-tagged PRMT1; made in house; host or cells: High Five insect cells (baculovirus, pFastBac1)
- Sequence (Q99873 with tags, fused parts or gaps): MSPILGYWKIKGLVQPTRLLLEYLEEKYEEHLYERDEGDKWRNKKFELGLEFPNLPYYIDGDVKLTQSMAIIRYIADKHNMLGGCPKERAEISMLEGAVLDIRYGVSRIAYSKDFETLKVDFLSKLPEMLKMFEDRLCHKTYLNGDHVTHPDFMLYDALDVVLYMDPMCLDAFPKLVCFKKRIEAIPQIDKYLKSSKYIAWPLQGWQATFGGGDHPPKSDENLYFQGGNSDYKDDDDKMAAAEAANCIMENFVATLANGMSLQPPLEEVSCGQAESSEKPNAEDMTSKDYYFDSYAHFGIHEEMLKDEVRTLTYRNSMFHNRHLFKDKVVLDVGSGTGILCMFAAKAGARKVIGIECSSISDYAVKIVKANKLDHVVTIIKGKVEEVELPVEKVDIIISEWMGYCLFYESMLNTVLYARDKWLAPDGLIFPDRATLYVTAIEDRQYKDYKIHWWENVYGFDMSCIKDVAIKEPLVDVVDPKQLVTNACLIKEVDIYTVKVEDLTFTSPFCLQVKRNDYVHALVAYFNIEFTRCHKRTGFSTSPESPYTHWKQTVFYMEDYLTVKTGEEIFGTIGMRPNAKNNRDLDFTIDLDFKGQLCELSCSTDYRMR
- Assay Comment: PRMT1 Biochemical Assay
- Reported Conditions: peptide substrate, 3H-SAM Flashplate assay; read-out: PRMT1 IC50
- From the text: S-adenosylmethionine (SAM), S-adenosylhomocysteine (SAH), bicine, Tween20, dimethylsulfoxide (DMSO), bovine skin gelatin (BSG), and Tris(2-carboxyethyl)phosphine hydrochloride solution (TCEP) were purchased from Sigma-Aldrich at the highest level of purity possible. ^3H-SAM was purchase from American Radiolabeled Chemicals with a specific activity of 80 Ci/mmol. 384-well streptavidin Flashplates were purchased from PerkinElmer. […]
Reported IC50 by item:
Give just the numeric value; nM need not be written.

Guide cases for IC50, answers given:
* CNCCN(C)Cc1c[nH]nc1-c1ccc(N(C)CC(C)C)cc1 | 31.9
* CNCCN(C)Cc1c[nH]nc1-c1cc(OCCC(C)(C)O)cc(C(F)(F)F)c1 | 24.8
* CCC(CC)Oc1ccc(-n2nccc2CN(C)CCNC)cc1 | 5.86
* CNCCN(C)Cc1c[nH]nc1-c1ccc(OC2CCC(OC)CC2)cc1 (stereo not drawn) | 22.5
* CNCCN(C)Cc1c[nH]nc1-c1cc(F)c(OC2CCOCC2)c(C(F)(F)F)c1 | 11

Exercise: Look up and report measured IC50 for this entry: CNCCN(C)Cc1c[nH]nc1-c1ccc(N2CCCC2)nc1
Solution: 18.3

Exercise: For CNCCN(C)Cc1c[nH]nc1-c1cc(F)c(OCCOC)c(C(F)(F)F)c1 , write its IC50.
Solution: 33.3

Exercise: Give the reported IC50 for this compound. CNCCN(C)Cc1c[nH]nc1-c1ccc(OCCOc2cccc(OCCC(O)CO)c2)cc1 (stereo not drawn)
Solution: 7.08

Exercise: Name the recorded IC50 of the compound listed here: CNCCN(C)Cc1c[nH]nc1-c1cc(OCCCO)cc(C(F)(F)F)c1
Solution: 48.9

Exercise: Look up and state reported IC50 for CNCCN(C)Cc1ccnn1C1CCC2(CCCO2)CC1 (stereo not drawn)
Solution: 13.1
